test.summary: in vitro
run.conditions: human, liver microsomes
CLhep predicted listing for selected molecules.
measured.parameter: CLhep predicted (mL/min/kg)

# smiles.notation, experimental.value
rows = [
    ("N#Cc1cc(Cl)c(C(=O)Nc2ccnc(NC(=O)[C@H]3C[C@H]3F)c2)c(Cl)c1", 11),
    ("N#Cc1cc(Cl)c(C(=O)Nc2ccnc(NC(=O)C3CC3)c2)c(Cl)c1", 8),
    ("O=C(Nc1ccnc(NC(=O)C2CC2)c1)c1c(Cl)cccc1Cl", 7),
    ("O=C(Nc1ccnc(NC(=O)[C@H]2C[C@H]2F)c1)c1c(Cl)cccc1Cl", 11),
    ("N#Cc1cc(F)c(C(=O)Nc2ccnc(NC(=O)[C@H]3C[C@H]3F)c2)c(Cl)c1", 8),
    ("O=C(Nc1ccnc(NC(=O)[C@H]2C[C@H]2F)c1)c1c(F)cccc1Cl", 4),
]

----------
test.summary: physchem
run.conditions: octanol/aqueous buffer, pH 7.4
Criterion: logD strictly under 3. Met: 1. Not met: -1.

# smiles.notation, cat
measured = [
    ("O=C(Nc1ccnc(NC(=O)[C@H]2C[C@H]2F)c1)c1c(Cl)cccc1Cl", 1),
    ("O=C(Nc1ccnc(NC(=O)C2CC2)c1)c1c(Cl)cccc1Cl", -1),
    ("N#Cc1cc(F)c(C(=O)Nc2ccnc(NC(=O)[C@H]3C[C@H]3F)c2)c(Cl)c1", 1),
    ("N#Cc1cc(Cl)c(C(=O)Nc2ccnc(NC(=O)[C@H]3C[C@H]3F)c2)c(Cl)c1", 1),
    ("N#Cc1cc(Cl)c(C(=O)Nc2ccnc(NC(=O)C3CC3)c2)c(Cl)c1", -1),
]

----------
test.summary: in vivo
run.conditions: CD1, mouse, plasma, po, 5 mg/kg

# smiles.notation, AUC / µM·h
records = [
    ("O=C(Nc1ccnc(NC(=O)C2CC2)c1)c1c(Cl)cccc1Cl", 2.6),
]

----------
test.summary: in vivo
run.conditions: Sprague-Dawley, rat, po, 5 mg/kg
measured.parameter: bioavailability (%)

# smiles.notation, experimental.value
records = [
    ("N#Cc1cc(Cl)c(C(=O)Nc2ccnc(NC(=O)[C@H]3C[C@H]3F)c2)c(Cl)c1", 100),
    ("N#Cc1cc(Cl)c(C(=O)Nc2ccnc(NC(=O)C3CC3)c2)c(Cl)c1", 86),
    ("O=C(Nc1ccnc(NC(=O)C2CC2)c1)c1c(Cl)cccc1Cl", 100),
    ("O=C(Nc1ccnc(NC(=O)[C@H]2C[C@H]2F)c1)c1c(Cl)cccc1Cl", 100),
    ("N#Cc1cc(F)c(C(=O)Nc2ccnc(NC(=O)[C@H]3C[C@H]3F)c2)c(Cl)c1", 70),
    ("O=C(Nc1ccnc(NC(=O)[C@H]2C[C@H]2F)c1)c1c(F)cccc1Cl", 100),
]

----------
fraction unbound listing for selected compounds.
test.summary: in vitro
run.conditions: mouse, plasma

# smiles.notation, fraction unbound
measured = [
    ("N#Cc1cc(F)c(C(=O)Nc2ccnc(NC(=O)[C@H]3C[C@H]3F)c2)c(Cl)c1", 0.05),
    ("O=C(Nc1ccnc(NC(=O)[C@H]2C[C@H]2F)c1)c1c(F)cccc1Cl", 0.036),
    ("O=C(Nc1ccnc(NC(=O)[C@H]2C[C@H]2F)c1)c1c(Cl)cccc1Cl", 0.018),
    ("N#Cc1cc(Cl)c(C(=O)Nc2ccnc(NC(=O)[C@H]3C[C@H]3F)c2)c(Cl)c1", 0.017),
    ("N#Cc1cc(Cl)c(C(=O)Nc2ccnc(NC(=O)C3CC3)c2)c(Cl)c1", 0.032),
    ("O=C(Nc1ccnc(NC(=O)C2CC2)c1)c1c(Cl)cccc1Cl", 0.044),
]
